So I've got a bunch of molecules here, and I need their log10 of IC50 values.
tested.on: IRAK4 (Homo sapiens)
Sequence (Q9NWZ3 1-460): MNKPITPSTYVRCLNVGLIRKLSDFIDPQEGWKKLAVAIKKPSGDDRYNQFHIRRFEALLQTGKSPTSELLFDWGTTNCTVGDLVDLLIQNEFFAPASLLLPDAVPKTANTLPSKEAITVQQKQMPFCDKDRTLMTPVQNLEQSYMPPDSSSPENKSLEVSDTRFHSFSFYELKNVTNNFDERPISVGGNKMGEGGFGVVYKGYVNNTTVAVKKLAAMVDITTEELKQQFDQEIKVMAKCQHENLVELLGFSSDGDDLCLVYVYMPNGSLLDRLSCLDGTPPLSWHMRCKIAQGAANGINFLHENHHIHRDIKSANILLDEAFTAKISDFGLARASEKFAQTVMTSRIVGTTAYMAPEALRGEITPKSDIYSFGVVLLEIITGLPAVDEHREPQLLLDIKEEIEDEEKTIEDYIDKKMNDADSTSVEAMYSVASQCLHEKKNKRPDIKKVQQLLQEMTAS
protocol.summary: RBC HotSpot Kinase Assay, IRAK4
Format: biochemical
Parameters: purchased Reaction Biology (RBC HotSpot Kinase Assay)
All values: base-10 log of IC50 in nM.

Form field: reported log10 of IC50 of COc1cc2ncc(-c3nc(N[C@H]4CNCC[C@@H]4F)c(F)cc3F)n2nc1C(C)(C)O
0.78

Now this one: c1cc(NC2CC3(CNC3)C2)nc(-c2cnc3ccc(-c4cn[nH]c4)nn23)c1
0.78

Another molecule: Cn1cc(-c2ccc3ncc(-c4cccc(N[C@H]5CCNC[C@@H]5F)n4)n3n2)cn1
1.71

Please answer likewise for COc1cc2ncc(-c3cc(F)cc(N[C@@H]4CCCNC4)n3)n2nc1C1CC1
1.65

Same read-out for COc1cc2ncc(-c3cccc(N[C@@H]4CCCNC4)n3)n2nc1C(C)(O)C(F)(F)F (single isomer, unassigned) [Compound 131] ?
2.63

Can you check c1cc(N[C@@H]2CCCNC2)nc(-c2cnc3ccc(-c4cnn5ccccc45)nn23)c1 next?
0.48

And the next one, FC(F)c1ccc2ncc(-c3cccc(N[C@H]4CNC[C@@H]4F)n3)n2n1 ?
1.46

Another: Cn1cc(-c2ccc3ncc(-c4cccc(NC5CCC6(CNC6)C5)n4)n3n2)cn1 (centres unmarked)
2.31

----------
tested.on: IRAK4 (Homo sapiens, UniProt Q9NWZ3)
protocol.summary: RBC HotSpot Kinase Assay, IRAK4
Format: biochemical
Parameters: purchased Reaction Biology (RBC HotSpot Kinase Assay)
measurement.kind: pIC50
The value called pIC50 is obtained by taking minus log10 of the concentration in mol/L.

Given the compound FC(F)n1cc(-c2ccc3ncc(-c4cccc(N[C@@H]5CCCNC5)n4)n3n2)cn1 , what is its reported pIC50?
6.80

Entry to check: CC(C)n1cc(-c2ccc3ncc(-c4cccc(NC5CCC6(CNC6)C5)n4)n3n2)cn1 (centres unmarked)
6.01

// same read-out, input: COc1ccc2ncc(-c3cccc(N[C@H]4CNC[C@@H]4F)n3)n2n1
7.08

For COc1cc2ncc(-c3nc(N[C@@H]4CCCNC4)c(F)cc3F)n2nc1C(C)(C)O then?
7.80

Repeat for the following compound: Cc1oncc1-c1ccc2ncc(-c3cccc(NC4CCC5(CNC5)C4)n3)n2n1 (centres unmarked)
5.57

Proceed to CC(C)n1cc(-c2ccc3ncc(-c4cccc(NC5CCNC5)n4)n3n2)cn1 (centres unmarked)
6.22

Now the compound COc1cc2ncc(-c3cccc(N[C@@H]4CCNC4)n3)n2nc1C1(C(F)(F)F)CC1
7.60

Another: CC(C)(O)Cn1cc(-c2ccc3ncc(-c4cccc(N[C@H]5CCNC[C@@H]5F)n4)n3n2)cn1
6.23

Next up: CC(C)(O)Cn1cc(-c2ccc3ncc(-c4cccc(N[C@H]5CNC[C@@H]5C(F)(F)F)n4)n3n2)cn1
7.00

Another: CC(C)(O)Cn1cc(-c2ccc3ncc(-c4cccc(NC5CNCC5(F)F)n4)n3n2)cn1 (centres unmarked)
6.58

Again, but for Cn1cc(-c2ccc3ncc(-c4cccc(N[C@H]5CNC[C@@H]5F)n4)n3n2)cn1
7.89

Please do the same for COc1cc2ncc(-c3cccc(N[C@@H]4CCCNC4)n3)n2nc1N1CCCC1=O as well.
5.70

Try this compound too: CC(C)n1cc(-c2ccc3ncc(-c4cccc(NC5CC6(CNC6)C5)n4)n3n2)cn1
6.20

Please do the same for FC1(F)CNCC1Nc1cccc(-c2cnc3ccc(-c4cnn5ncccc45)nn23)n1 (centres unmarked) as well.
8.10

Would you kindly repeat that for CNc1ccc2ncc(-c3cccc(N[C@H]4CNC[C@@H]4F)n3)n2n1 ?
7.24

Continue with c1cc(NC2CC3(CNC3)C2)nc(-c2cnc3ccc(-c4cnn5ccccc45)nn23)c1
7.59

# iterate: F[C@H]1CNC[C@@H]1Nc1cccc(-c2cnc3ccc(Oc4ccccc4)nn23)n1
6.02
